# System: clinical MDR E. coli isolates
# method.notes: MIC, clinical multi-drug resistant E. coli isolates
# Format: cell-based
# study.conditions: Escherichia coli, read-out: MIC E. coli EN0481
measured.metric: MIC (µg/mL)
Numbers only, in µg/mL.

Cc1cc(C#N)nc(N2CCN(S(=O)(=O)c3ccc(NC(=O)c4cc(CNCCCN)ccc4N(C)S(C)(=O)=O)cc3)CC2)n1.Cl.Cl [EBL-3599] : 2

Now for the compound whose MIC we want.
Recorded MIC for Cc1cc(C#N)nc(N2CCN(S(=O)(=O)c3ccc(NC(=O)c4cc(CN5CC(CN)C5)ccc4N(C)S(C)(=O)=O)cc3)CC2)n1 [EBL-3647] , please?
1

---

# Test system: E. coli ATCC 25922
# method.notes: MIC (CLSI broth microdilution), wild-type E. coli
# Type: cell-based
# study.conditions: Escherichia coli, ATCC25922; read-out: MIC E. coli ATCC 25922 Wild-type
measured.metric: MIC (µg/mL)
Answers are plain numbers, in µg/mL.

Study these solved cases before continuing.
CN(c1ccc(CNCCN)cc1C(=O)Nc1ccc(S(=O)(=O)N2CCN(c3cc(Cl)cc(Cl)c3)CC2)cc1)S(C)(=O)=O : 1
Cc1cc(C#N)nc(N2CCN(S(=O)(=O)c3ccc(NC(=O)c4ccccc4N(C)S(C)(=O)=O)cc3)CC2)n1 : 1

Now for the compound whose MIC we want.
Recorded MIC for CN(c1ccccc1C(=O)Nc1ccc(S(=O)(=O)N2CCN(c3cccc(C(F)(F)F)c3)CC2)cc1)S(C)(=O)=O , please?
2

---

What AUC was measured for each of the following?
# method.notes: in vivo
# Parameters: species or system NMRI mice
# study.conditions: female, NMRI, mouse, sc, 10 mg/kg
The reply should read as a number followed by its unit.

Cc1cc(C#N)nc(N2CCN(S(=O)(=O)c3ccc(NC(=O)c4cc(CN5CC(CN)C5)ccc4N(C)S(C)(=O)=O)cc3)CC2)n1 [EBL-3647] : 20200 ng·h/mL

Now for the molecule whose AUC we want.
Recorded AUC for Cc1cc(C#N)nc(N2CCN(S(=O)(=O)c3ccc(NC(=O)c4cc(CNCCCN)ccc4N(C)S(C)(=O)=O)cc3)CC2)n1.Cl.Cl [EBL-3599] , please?
22900 ng·h/mL

---

# method.notes: in vivo
# Design: species or system NMRI mice
# study.conditions: female, NMRI, mouse, sc, 10 mg/kg
What Cmax was measured for each of the following?
One number for each entry, in ng/mL.

Cc1cc(C#N)nc(N2CCN(S(=O)(=O)c3ccc(NC(=O)c4cc(CN5CC(CN)C5)ccc4N(C)S(C)(=O)=O)cc3)CC2)n1 : 12000

Now for the molecule whose Cmax we want.
Recorded Cmax for Cc1cc(C#N)nc(N2CCN(S(=O)(=O)c3ccc(NC(=O)c4cc(CNCCCN)ccc4N(C)S(C)(=O)=O)cc3)CC2)n1.Cl.Cl , please?
13000

---

What pIC50 was measured for each of the following?
# System: HepG2 cells
# method.notes: HepG2 cytotoxicity (72 h)
# Type: cell-based
# study.conditions: Homo sapiens, HepG2, 72 h, read-out: HepG2 viability IC50, 72 h
One number for each entry, as −log10 of the molar value.

Study these solved cases before continuing.
Cc1cc(C#N)nc(N2CCN(S(=O)(=O)c3ccc(NC(=O)c4ccccc4N(C)S(C)(=O)=O)cc3)CC2)n1 [EBL-3339] : 4.54
CC(=O)N1CCc2cc(S(=O)(=O)N3CCN(c4cccc(C(F)(F)F)c4)CC3)ccc21 [AZ1, reference compound] : 4.65
Cc1cc(C#N)nc(N2CCN(S(=O)(=O)c3ccc(NC(=O)c4cc(CN5CC(CN)C5)ccc4N(C)S(C)(=O)=O)cc3)CC2)n1 [EBL-3647] : 4.27

Now for the compound whose pIC50 we want.
Identify the measured pIC50 of CN(c1ccc(CNCCN)cc1C(=O)Nc1ccc(S(=O)(=O)N2CCN(c3cc(Cl)cc(Cl)c3)CC2)cc1)S(C)(=O)=O [EBL-3025] for HepG2 cells.
4.31

---

# pIC50 per entry for UniProt:P43341
# Sequence (P43341 whole entry): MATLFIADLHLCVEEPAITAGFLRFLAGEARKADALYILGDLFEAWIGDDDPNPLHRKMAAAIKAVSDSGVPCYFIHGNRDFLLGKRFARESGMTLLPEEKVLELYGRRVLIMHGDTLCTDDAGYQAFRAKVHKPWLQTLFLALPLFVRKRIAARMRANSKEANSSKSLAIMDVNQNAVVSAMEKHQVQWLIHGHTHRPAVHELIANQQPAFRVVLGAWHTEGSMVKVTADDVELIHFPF
Answers are plain numbers, as −log10 of the molar value.

CN(c1ccc(CNCCN)cc1C(=O)Nc1ccc(S(=O)(=O)N2CCN(c3cc(Cl)cc(Cl)c3)CC2)cc1)S(C)(=O)=O [EBL-3025] : 8.47
CN(c1ccccc1C(=O)Nc1ccc(S(=O)(=O)N2CCCCC2)cc1)S(C)(=O)=O [JEDI-852] : 5.89

Kindly give each listed record's pIC50.
1. CC(=O)N1CCc2cc(S(=O)(=O)N3CCN(c4cccc(C(F)(F)F)c4)CC3)ccc21 [AZ1, reference compound]
2. CN(c1ccccc1C(=O)Nc1ccc(S(=O)(=O)N2CCN(c3cccc(C(F)(F)F)c3)CC2)cc1)S(C)(=O)=O [JEDI-1444]
3. Cc1cc(C#N)nc(N2CCN(S(=O)(=O)c3ccc(NC(=O)c4ccccc4N(C)S(C)(=O)=O)cc3)CC2)n1 [EBL-3339]

1. 6.28
2. 8.59
3. 8.82

---

# Tested on: HepG2 cells
# method.notes: HepG2 cytotoxicity (72 h)
# Assay type: cell-based
# study.conditions: Homo sapiens, HepG2, 72 h; read-out: HepG2 viability IC50
measured.metric: IC50
The reply should read as a number followed by its unit.

Recorded IC50 for Cc1cc(C#N)nc(N2CCN(S(=O)(=O)c3ccc(NC(=O)c4cc(CNCCCN)ccc4N(C)S(C)(=O)=O)cc3)CC2)n1.Cl.Cl , please?
55 µM

---

# Test system: E. coli ATCC 25922
# method.notes: MIC (CLSI broth microdilution), wild-type E. coli
# Type: cell-based
# study.conditions: Escherichia coli, ATCC25922; ATCC 25922 (Table S4); read-out: MIC E. coli EN0001
What MIC was measured for each of the following?
One number for each entry, in µg/mL.

Cc1cc(C#N)nc(N2CCN(S(=O)(=O)c3ccc(NC(=O)c4cc(CNCCCN)ccc4N(C)S(C)(=O)=O)cc3)CC2)n1.Cl.Cl : 2
Cc1cc(C#N)nc(N2CCN(S(=O)(=O)c3ccc(NC(=O)c4cc(CN5CC(CN)C5)ccc4N(C)S(C)(=O)=O)cc3)CC2)n1 : 2
CO/N=C(\C(=O)N[C@@H]1C(=O)N2C(C(=O)O)=C(COC(C)=O)CS[C@H]12)c1csc(N)n1 : 0.5

Recorded MIC for CNC(C)C1CCC(N)C(OC2C(N)CC(N)C(OC3OCC(C)(O)C(NC)C3O)C2O)O1 (centres unmarked) , please?
1

---

What MIC was measured for each of the following?
# Test system: clinical MDR E. coli isolates
# method.notes: MIC, clinical multi-drug resistant E. coli isolates
# Format: cell-based
# study.conditions: Escherichia coli, read-out: MIC E. coli EN0481

Study these solved cases before continuing.
CNC(C)C1CCC(N)C(OC2C(N)CC(N)C(OC3OCC(C)(O)C(NC)C3O)C2O)O1 (stereo not drawn) [Gentamicin] : > 64 mg/L
CO/N=C(\C(=O)N[C@@H]1C(=O)N2C(C(=O)O)=C(COC(C)=O)CS[C@H]12)c1csc(N)n1 [Cefotaxime] : > 64 mg/L

Now for the compound whose MIC we want.
Recorded MIC for C[C@@H](O)[C@H]1C(=O)N2C(C(=O)O)=C(S[C@@H]3CN[C@H](C(=O)N(C)C)C3)[C@H](C)[C@H]12 [Meropenem] , please?
≤ 0.125 mg/L
